The origin of these recorded values is PubChem BioAssay AID463173.

Test system: DeltatarO mutant
assay info: S. aureus survival, RN4220 and DeltatarO strains – OD600, teichoic acid synthesis inhibitors, primary screen (AID 463173)
experimental conditions: S. aureus RN4220 wild type/DeltatarO growth, OD600, 18 h, screened at 18.75 µg/mL (by protocol)
In all, about 52,000 compounds went through this assay and about 4,300 (8.3%) were called active. No stated cut-off is given here; in the data, active means survival mostly below about 52% (no sharp cut-off); inactive means mostly above about 56%. Only a selection was taken, and actives are over-represented in it overall.
Allowed answers: Y for active, N for inactive

Some solved entries appear below for comparison.
compound | cat
Nc1c(C(=O)Nc2ccccc2)nnn1Cc1ccc(F)cc1Cl | N
O=C(Cn1c(=O)n(-c2ccccc2Cl)c(=O)c2sc3ccccc3c21)N1CCCC1 | N
COc1ccccc1Nc1nn2c(=O)c3ccc(C(=O)NCCCOC(C)C)cc3nc2s1 | N
COC(=O)c1ccccc1NC(=O)Cn1c(=O)cc(-c2ccccc2)c2c(C)nn(C)c21 | N

Kindly provide the recorded test outcome for the following compound: CCOc1ccc(NC(=O)CSC2=Nc3ccccc3C3=NC(CCC(=O)NCc4cccs4)C(=O)N23)cc1 (configuration not stated) N

Kindly provide the recorded test outcome for the following compound: CCNC(=O)c1cnc2sc(N3CCCCCC3)nn2c1=O N

Kindly provide the recorded test outcome for the following compound: Cc1c(-c2ccccc2)nc2ccccc2c1C(=O)O N

Kindly provide the recorded test outcome for the following compound: Cc1c(CCNC(=O)c2ccc(Br)o2)sc2nc(-c3ccc(Cl)cc3)nn12 N

Kindly provide the recorded test outcome for the following compound: CN(C)c1ccc(CNC(=O)c2ccccc2NC(=O)c2nsc3ccccc23)cc1 N

* * *

Item-by-item account of survival
Tested on: DeltatarO mutant
assay info: S. aureus survival, RN4220 and DeltatarO strains – OD600, teichoic acid synthesis inhibitors, primary screen (AID 463173)
experimental conditions: S. aureus RN4220 wild type/DeltatarO growth, OD600, 18 h, stronger effect = lower value, screened at 18.75 µg/mL (by protocol)
Among all 52,000 compounds or so, about 4,300 (8.3%) were called active. This is one part of a sample in which actives are shown more often than they occur.

compound | survival
CCN1CCN(C(c2cccc(OC)c2)c2c(O)cc(C)n(Cc3ccco3)c2=O)CC1 (stereo not drawn) | 120% (inactive)
CCCSc1ncc(Cl)c(C(=O)NCc2ccc(C)cc2)n1 | 57% (inactive)
COc1ccc(OC)c(NC(=O)c2nc(SCc3ccccc3F)ncc2Cl)c1 | 70% (inactive)
Cn1c(O)c(N=NC(=O)c2ccccc2)c2ccccc21 | 105% (inactive)
CCOC(=O)Cc1cc(=O)[nH]c(/N=C(\N)Nc2ccc3ccccc3c2)n1 | 98% (inactive)
O=C(CCS(=O)(=O)c1cc2c(cc1Cl)NC(=O)CO2)NCc1ccccc1 | 106% (inactive)
COc1ccc(-c2noc(C3CC(=O)N(c4cc(C)cc(C)c4)C3)n2)cc1 (stereo not drawn) | 91% (inactive)
Cc1ccc(-c2noc(C3CC(=O)N(c4ccc5c(c4)OCCO5)C3)n2)cc1 (stereo not drawn) | 46% (active)

Consider the compound shown here: CCN(CC)CCCNC(=O)c1cnc(SC)nc1-c1ccccc1 What is its recorded survival? 69% (inactive)

Consider the compound shown here: CN(Cc1ccco1)S(=O)(=O)c1nnc(NC(=O)c2cccc(Cl)c2)s1 What is its recorded survival? 5% (active)

Consider the compound shown here: Cn1c(=O)c(=O)n(C)c2cc(S(=O)(=O)CCC(=O)Nc3ccc(F)cc3)ccc21 What is its recorded survival? 83% (inactive)

Consider the compound shown here: CCCSc1ncc(Cl)c(C(=O)Nc2ccc(OC)cc2OC)n1 What is its recorded survival? 46% (active)

Consider the compound shown here: Cc1ccc(/C=C/c2onc(C)c2S(=O)(=O)N2CCC(C(=O)NCc3ccco3)CC2)cc1 What is its recorded survival? 74% (inactive)

Consider the compound shown here: COc1ccc(CCNS(=O)(=O)c2ccc(N3CCCCS3(=O)=O)cc2)cc1 What is its recorded survival? 79% (inactive)

Consider the compound shown here: Cc1ccc(OCc2nc3ccccc3n2CCOc2ccc(Cl)cc2)cc1 What is its recorded survival? 15% (active)

* * *

System: DeltatarO mutant
assay info: S. aureus survival, RN4220 and DeltatarO strains – OD600, teichoic acid synthesis inhibitors, primary screen (AID 463173)
experimental conditions: S. aureus RN4220 wild type/DeltatarO growth, OD600, 18 h, screened at 18.75 µg/mL (by protocol)
In all, about 52,000 compounds went through this assay and about 4,300 (8.3%) were called active. No stated cut-off is given here; in the data, active means survival mostly below about 52% (no sharp cut-off); inactive means mostly above about 56%. The sample as a whole holds a higher share of actives than the screen did.
Allowed answers: YES = active, NO = inactive

compound | cat
COc1cc(OC)c(Nc2ncnc3onc(-c4cccc(Cl)c4)c23)cc1Cl | NO

Kindly provide the recorded test outcome for the following compound: COc1ccc(NCc2nc3ccccc3n2CCOc2ccccc2C)cc1 YES

Kindly provide the recorded test outcome for the following compound: CCCCN(CC)CCCNC(=O)c1nn(-c2ccc(OC)cc2)c(=O)c2c1c1ccccc1n2C NO

Kindly provide the recorded test outcome for the following compound: O=C(CC(c1cccs1)N1Cc2ccccc2C1=O)Nc1ccc(F)c(Cl)c1 (stereo unspecified) NO

Kindly provide the recorded test outcome for the following compound: CCOC(=O)c1cnc2ccc(C(=O)OC)cc2c1Nc1ccc(N2CCOCC2)cc1 NO

Kindly provide the recorded test outcome for the following compound: COc1ccc(NC(=O)CCS(=O)(=O)c2nc(-c3ccc4c(c3)OCO4)cc(C(F)(F)F)n2)cc1OC NO

Kindly provide the recorded test outcome for the following compound: O=c1c(N2CCc3ccccc3C2)csc2ccc(Br)cc12 NO

* * *

System: DeltatarO mutant
assay info: S. aureus survival, RN4220 and DeltatarO strains – OD600, teichoic acid synthesis inhibitors, primary screen (AID 463173)
experimental conditions: S. aureus RN4220 wild type/DeltatarO growth, OD600, 18 h, stronger effect = lower value, screened at 18.75 µg/mL (by protocol)
In all, about 52,000 compounds went through this assay and about 4,300 (8.3%) were called active. The sample holds actives, similar compounds and a random draw of the others, so the mix is not that of the screen.
Item-by-item account of survival
Write the value in % as a bare number.

compound | survival / %
CC1CCN(S(=O)(=O)c2ccc(NC(=O)Nc3ccccc3)cc2)CC1 | 9

Consider the compound shown here: CC(=O)Nc1ccc(S(=O)(=O)N2CCC(C)CC2)cc1 What is its recorded survival? 96

Consider the compound shown here: Cc1ccc2c(CC(=O)Nc3nnc(C(C)C)s3)coc2c1C What is its recorded survival? 101

Consider the compound shown here: Cc1ccc(C)c(CN2C(=O)c3ccccc3S(=O)c3ccc(C(=O)NCc4ccco4)cc32)c1 (stereo not given) What is its recorded survival? 72

* * *

Tested on: DeltatarO mutant
assay info: S. aureus survival, RN4220 and DeltatarO strains – OD600, teichoic acid synthesis inhibitors, primary screen (AID 463173)
experimental conditions: S. aureus RN4220 wild type/DeltatarO growth, OD600, 18 h, stronger effect = lower value, screened at 18.75 µg/mL (by protocol)
In all, about 52,000 compounds went through this assay and about 4,300 (8.3%) were called active. This is one part of a sample in which actives are shown more often than they occur.
Values of survival strictly less than 80% map to fulfilled, and values of at least 80% map to not fulfilled.

compound | cat
CCOC(=O)N1CCC(NC(=O)c2cnn(-c3ccc(OC)cc3)c2C2CCN(C(=O)OC(C)(C)C)CC2)CC1 | not fulfilled

Is survival strictly under 80% for the entry CCN(CC)N=Nc1ccc(S(=O)(=O)N2CCSC2C(=O)O)cc1 (stereo unspecified) ? not fulfilled

Is survival strictly under 80% for the entry COc1ccc(-c2cc(C(=O)NCCc3ccccc3)c3c(-c4ccccc4)[nH]nc3n2)cc1 ? not fulfilled

* * *

Item-by-item account of survival
System: DeltatarO mutant
assay info: S. aureus survival, RN4220 and DeltatarO strains – OD600, teichoic acid synthesis inhibitors, primary screen (AID 463173)
experimental conditions: S. aureus RN4220 wild type/DeltatarO growth, OD600, 18 h, stronger effect = lower value, screened at 18.75 µg/mL (by protocol)
Out of some 52,000 compounds screened, about 4,300 (8.3%) were called active. The full list was thinned out, with actives kept by preference.
Write the value in % as a bare number.

The following compounds have reported results that may help.
compound | unit annotation | survival
O=C(Nc1ccccc1)N(Cc1ccc(F)cc1)c1ccccn1 | % | 56
CC(C)(C)NC(=O)c1c(N)no[n+]1[O-] | % | 92
CN(C)C(=O)c1c(N)no[n+]1[O-] | % | 56
O=S(=O)(Nc1nc2n(n1)C(c1ccc(F)cc1)C=C(c1ccccc1)N2)c1ccc(Cl)cc1 (configuration not stated) | % | 10
Nc1no[n+]([O-])c1C(=O)NCCO | % | 65
O=S(=O)(Nc1nc2n(n1)C(c1ccc(F)cc1)C=C(c1ccccc1)N2)c1ccccc1 (configuration not stated) | % | 73
Cc1ccc(CN(C(=O)Nc2cccc(Cl)c2)c2ccccn2)cc1 | % | 40
O=C(CN1C(=O)COc2ccc(Cl)cc21)Nc1ccc(F)cc1 | % | 67
Cc1cccc(CS(=O)(=O)c2ncc(Cl)c(C(=O)Nc3nc4ccc(F)cc4s3)n2)c1 | % | -1
COC(=O)c1ccc(NC(=O)CSc2nc3cc4ccccc4cc3[nH]2)cc1 | % | 65

Consider the compound shown here: CCOC(=O)c1ccc(NC(=O)CSc2nc(C)c(Cc3ccccc3)c(=O)[nH]2)cc1 What is its recorded survival? 45

Consider the compound shown here: NC(=O)c1ccc2nc(N)sc2c1 What is its recorded survival? 102

Consider the compound shown here: O=C(CCc1ccccc1)NCc1ccco1 What is its recorded survival? 88

Consider the compound shown here: Cc1ccc(C2C=C(c3ccc(F)cc3)Nc3nc(CCCO)nn32)cc1 (configuration not stated) What is its recorded survival? 53

Consider the compound shown here: Cc1ccc2c(c1)NC(=O)C(CC(=O)Nc1ccccc1Cl)O2 (configuration not stated) What is its recorded survival? 77

Consider the compound shown here: O=C(Nc1ccccc1)N(Cc1cccc(Cl)c1)c1ccccn1 What is its recorded survival? 37
